Origin of values: the Kinase Knowledgebase extract (Sharma et al. 2016)

# Measurement target: CDK2 (UniProt P24941)
# Measurement protocol: Enzyme Assay
# Test parameters: concentration not given here
The compounds listed here are annotated with their inhibition.
Metric name: inhibition (%)

CC[C@H](C)[C@@H](CO)NC(=O)c1ccc(Nc2nc(N)c(C(=O)c3c(F)cccc3F)s2)cc1 :: -7
Nc1nc(Nc2ccc(C(=O)N3CCN(c4ccncc4)CC3)cc2)sc1C(=O)c1c(F)cccc1F :: -1
CC1CC(NC(=O)c2ccc(Nc3nc(N)c(C(=O)c4c(F)cccc4F)s3)cc2)CC(C)(C)C1 (centres undefined) :: -11
CC(CNC(=O)c1ccc(Nc2nc(N)c(C(=O)c3c(F)cccc3F)s2)cc1)N(C)C (centres undefined) :: -7
Cc1cccc(Cl)c1NC(=O)c1ccc(Nc2nc(N)c(C(=O)c3c(F)cccc3F)s2)cc1 :: -12
Nc1nc(Nc2ccc(C(=O)N(CCCCO)Cc3ccccc3)cc2)sc1C(=O)c1c(F)cccc1F :: 0
CCCCN(Cc1ccccc1)C(=O)c1ccc(Nc2nc(N)c(C(=O)c3c(F)cccc3F)s2)cc1 :: -17
COc1ccc(CCN(C)C(=O)c2ccc(Nc3nc(N)c(C(=O)c4c(F)cccc4F)s3)cc2)cc1OC :: -3
CCCCN(CCC#N)C(=O)c1ccc(Nc2nc(N)c(C(=O)c3c(F)cccc3F)s2)cc1 :: 4

----------
// values below are reported inhibition
# Measurement target: CDK2 (UniProt P24941)
# Measurement protocol: Enzyme Assay
# Test parameters: concentration not given here
Metric name: inhibition (%)

Nc1nc(Nc2ccc(C(=O)N[C@H](CO)Cc3ccccc3)cc2)sc1C(=O)c1c(F)cccc1F :: -14
Nc1nc(Nc2ccc(C(=O)Nc3ccc4ncsc4c3)cc2)sc1C(=O)c1c(F)cccc1F :: 13
COC(CN(C)C(=O)c1ccc(Nc2nc(N)c(C(=O)c3c(F)cccc3F)s2)cc1)OC :: -7
Nc1nc(Nc2ccc(C(=O)N3CCCC3)cc2)sc1C(=O)c1c(F)cccc1F :: -15
Nc1nc(Nc2ccc(C(=O)Nc3cccc(Br)c3)cc2)sc1C(=O)c1c(F)cccc1F :: -8
Nc1nc(Nc2ccc(C(=O)Nc3cccc(F)c3)cc2)sc1C(=O)c1c(F)cccc1F :: -6
Nc1nc(Nc2ccc(C(=O)NCCc3ccncc3)cc2)sc1C(=O)c1c(F)cccc1F :: -11
CCCCN(CC#N)C(=O)c1ccc(Nc2nc(N)c(C(=O)c3c(F)cccc3F)s2)cc1 :: -1
CN1CCN(C(=O)c2ccc(Nc3nc(N)c(C(=O)c4c(F)cccc4F)s3)cc2)CC1 :: -9

----------
# Measurement target: CDK2 (UniProt P24941)
# Measurement protocol: Enzyme Assay
# Test parameters: concentration not given here
Listing of recorded inhibition by entry.
Metric name: inhibition

Nc1nc(Nc2ccc(C(=O)N[C@H](CO)CC3CCCCC3)cc2)sc1C(=O)c1c(F)cccc1F :: -7%
N#CCCSc1ccccc1NC(=O)c1ccc(Nc2nc(N)c(C(=O)c3c(F)cccc3F)s2)cc1 :: -14%
Nc1nc(Nc2ccc(C(=O)N3CCSC3)cc2)sc1C(=O)c1c(F)cccc1F :: -3%
Nc1nc(Nc2ccc(C(=O)NCCc3ccccc3)cc2)sc1C(=O)c1c(F)cccc1F :: -19%
CCN(C(=O)c1ccc(Nc2nc(N)c(C(=O)c3c(F)cccc3F)s2)cc1)C1CCCCC1 :: -10%

----------
# Measurement target: CDK2 (UniProt P24941)
# Measurement protocol: Enzyme Assay
# Test parameters: concentration not given here
Metric name: inhibition (%)

Cc1cccc(N2CCN(C(=O)c3ccc(Nc4nc(N)c(C(=O)c5c(F)cccc5F)s4)cc3)CC2C)c1 (configuration not stated) :: -23
CC1CC(C)CN(C(=O)c2ccc(Nc3nc(N)c(C(=O)c4c(F)cccc4F)s3)cc2)C1 (configuration not stated) :: -33
CCN(CC)CCN(C)C(=O)c1ccc(Nc2nc(N)c(C(=O)c3c(F)cccc3F)s2)cc1 :: -9
CCOC(=O)c1ccc(NC(=O)c2ccc(Nc3nc(N)c(C(=O)c4c(F)cccc4F)s3)cc2)cc1 :: 1
NC(=O)c1cccc(NC(=O)c2ccc(Nc3nc(N)c(C(=O)c4c(F)cccc4F)s3)cc2)c1 :: -1
CSc1ccc(NC(=O)c2ccc(Nc3nc(N)c(C(=O)c4c(F)cccc4F)s3)cc2)cc1 :: -25
CN(C(=O)c1ccc(Nc2nc(N)c(C(=O)c3c(F)cccc3F)s2)cc1)C1CCCCC1 :: -2
Nc1nc(Nc2ccc(C(=O)NCCOCCO)cc2)sc1C(=O)c1c(F)cccc1F :: -9
Cc1ccc(O)c(NC(=O)c2ccc(Nc3nc(N)c(C(=O)c4c(F)cccc4F)s3)cc2)c1 :: -6
C=CCN(C)C(=O)c1ccc(Nc2nc(N)c(C(=O)c3c(F)cccc3F)s2)cc1 :: -6
CN(C)CCCCCCNC(=O)c1ccc(Nc2nc(N)c(C(=O)c3c(F)cccc3F)s2)cc1 :: -16
CC(C)NC(=O)c1ccc(Nc2nc(N)c(C(=O)c3c(F)cccc3F)s2)cc1 :: -10
Cc1cccc(NC(=O)c2ccc(Nc3nc(N)c(C(=O)c4c(F)cccc4F)s3)cc2)c1 :: -7
COCCCNC(=O)c1ccc(Nc2nc(N)c(C(=O)c3c(F)cccc3F)s2)cc1 :: -24
Cc1cc(C)cc(NC(=O)c2ccc(Nc3nc(N)c(C(=O)c4c(F)cccc4F)s3)cc2)c1 :: -3
CCCN(CC1CC1)C(=O)c1ccc(Nc2nc(N)c(C(=O)c3c(F)cccc3F)s2)cc1 :: -3
Nc1nc(Nc2ccc(C(=O)NCCCN3CCCC3=O)cc2)sc1C(=O)c1c(F)cccc1F :: -23
CC(=O)c1ccc(NC(=O)c2ccc(Nc3nc(N)c(C(=O)c4c(F)cccc4F)s3)cc2)cc1 :: -5
CC(C)C(C)NC(=O)c1ccc(Nc2nc(N)c(C(=O)c3c(F)cccc3F)s2)cc1 (configuration not stated) :: -20
CN(CCc1ccccc1)C(=O)c1ccc(Nc2nc(N)c(C(=O)c3c(F)cccc3F)s2)cc1 :: -12
CC(=O)N[C@@H]1CCN(C(=O)c2ccc(Nc3nc(N)c(C(=O)c4c(F)cccc4F)s3)cc2)C1 :: -7
CSCC[C@@H](CO)NC(=O)c1ccc(Nc2nc(N)c(C(=O)c3c(F)cccc3F)s2)cc1 :: -5
C#CCc1ccc(NC(=O)c2ccc(Nc3nc(N)c(C(=O)c4c(F)cccc4F)s3)cc2)cc1 :: 1
Nc1nc(Nc2ccc(C(=O)Nc3ccc(Cl)cc3)cc2)sc1C(=O)c1c(F)cccc1F :: -10
Nc1nc(Nc2ccc(C(=O)Nc3ccc(Nc4ccccc4)cc3)cc2)sc1C(=O)c1c(F)cccc1F :: -6
CN(Cc1ccccc1)C(=O)c1ccc(Nc2nc(N)c(C(=O)c3c(F)cccc3F)s2)cc1 :: -1
Cc1cc(NC(=O)c2ccc(Nc3nc(N)c(C(=O)c4c(F)cccc4F)s3)cc2)ccc1F :: -1
C#CCCN(C)C(=O)c1ccc(Nc2nc(N)c(C(=O)c3c(F)cccc3F)s2)cc1 :: 0
Nc1nc(Nc2ccc(C(=O)NC3CC3)cc2)sc1C(=O)c1c(F)cccc1F :: -5
CC1CN(C(=O)c2ccc(Nc3nc(N)c(C(=O)c4c(F)cccc4F)s3)cc2)CC(C)O1 (configuration not stated) :: -10
Cc1nccc(-c2cccc(NC(=O)c3ccc(Nc4nc(N)c(C(=O)c5c(F)cccc5F)s4)cc3)c2)n1 :: -40
CC(CCc1ccccc1)NC(=O)c1ccc(Nc2nc(N)c(C(=O)c3c(F)cccc3F)s2)cc1 (configuration not stated) :: -6
Nc1nc(Nc2ccc(CCO)cc2)sc1C(=O)c1c(F)cccc1F :: 19
Nc1nc(Nc2ccc(C(=O)N3CCOCC3)cc2)sc1C(=O)c1c(F)cccc1F :: -4
COCCN(CCOC)C(=O)c1ccc(Nc2nc(N)c(C(=O)c3c(F)cccc3F)s2)cc1 :: -4
Nc1nc(Nc2ccc(C(=O)NCCCCCO)cc2)sc1C(=O)c1c(F)cccc1F :: -4
C#CCN(C)C(=O)c1ccc(Nc2nc(N)c(C(=O)c3c(F)cccc3F)s2)cc1 :: -14

----------
# Measurement target: UniProt P24941
# Measurement protocol: Enzyme Assay
# Test parameters: concentration not given here
Quick list: inhibition per entry.
Metric name: inhibition (%)

COCCN(C)C(=O)c1ccc(Nc2nc(N)c(C(=O)c3c(F)cccc3F)s2)cc1 :: -16
COCC(C)NC(=O)c1ccc(Nc2nc(N)c(C(=O)c3c(F)cccc3F)s2)cc1 (centres undefined) :: -2
CN(Cc1ccncc1)C(=O)c1ccc(Nc2nc(N)c(C(=O)c3c(F)cccc3F)s2)cc1 :: 1
Nc1nc(Nc2ccc(C(=O)NCCCCO)cc2)sc1C(=O)c1c(F)cccc1F :: -12
Nc1nc(Nc2ccc(C(=O)N3CCCCC3CCO)cc2)sc1C(=O)c1c(F)cccc1F (centres undefined) :: -24
CN(Cc1ccccc1Cl)C(=O)c1ccc(Nc2nc(N)c(C(=O)c3c(F)cccc3F)s2)cc1 :: -30
CCCN(CCC#N)C(=O)c1ccc(Nc2nc(N)c(C(=O)c3c(F)cccc3F)s2)cc1 :: -12
CC(C)C(CO)NC(=O)c1ccc(Nc2nc(N)c(C(=O)c3c(F)cccc3F)s2)cc1 (centres undefined) :: -3
CC(C)N(Cc1ccccc1)c1ccc(NC(=O)c2ccc(Nc3nc(N)c(C(=O)c4c(F)cccc4F)s3)cc2)cc1 :: -4
